# target_desc: T1, human GIP receptor (GIPR) (human), P48546
# T1 chain: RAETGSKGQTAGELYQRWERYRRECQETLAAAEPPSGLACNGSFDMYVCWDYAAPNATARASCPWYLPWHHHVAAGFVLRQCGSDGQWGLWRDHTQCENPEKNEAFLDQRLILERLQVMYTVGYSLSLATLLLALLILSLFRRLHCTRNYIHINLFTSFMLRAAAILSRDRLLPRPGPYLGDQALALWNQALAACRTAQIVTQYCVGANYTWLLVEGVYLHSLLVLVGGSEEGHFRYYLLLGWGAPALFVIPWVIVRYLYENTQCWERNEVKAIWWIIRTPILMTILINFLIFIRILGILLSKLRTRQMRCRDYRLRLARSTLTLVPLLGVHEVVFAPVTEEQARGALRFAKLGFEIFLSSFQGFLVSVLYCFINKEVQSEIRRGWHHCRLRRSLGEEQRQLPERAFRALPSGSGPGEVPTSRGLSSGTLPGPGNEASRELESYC
# test: competition, 125I-GIP(1-30)NH2
# study_conditions: modification not given
No end group written: not given here.
Hi there, I'd appreciate the recorded IC50 for every entry that follows.
Unit µM implied. Number only.

Lookup: Item under review: AEGTFISDYSIAMDKIHQQDFVNWLLAQK (not fully specified (C-terminus)) [GIP(2-30)NH2] . Reported IC50?
Found: 0.026

Lookup: Quick check: IC50 of FISDYSIAMDKIHQQDFVNWLLAQK (not fully specified (C-terminus)) [GIP(6-30)NH2] ?
Found: 1.06

Provenance of the data: patent US20180258152
